- Tested On: Voltage-gated inwardly rectifying potassium channel KCNH2 (Homo sapiens, UniProt Q12809)
- Sequence (Q12809 whole entry): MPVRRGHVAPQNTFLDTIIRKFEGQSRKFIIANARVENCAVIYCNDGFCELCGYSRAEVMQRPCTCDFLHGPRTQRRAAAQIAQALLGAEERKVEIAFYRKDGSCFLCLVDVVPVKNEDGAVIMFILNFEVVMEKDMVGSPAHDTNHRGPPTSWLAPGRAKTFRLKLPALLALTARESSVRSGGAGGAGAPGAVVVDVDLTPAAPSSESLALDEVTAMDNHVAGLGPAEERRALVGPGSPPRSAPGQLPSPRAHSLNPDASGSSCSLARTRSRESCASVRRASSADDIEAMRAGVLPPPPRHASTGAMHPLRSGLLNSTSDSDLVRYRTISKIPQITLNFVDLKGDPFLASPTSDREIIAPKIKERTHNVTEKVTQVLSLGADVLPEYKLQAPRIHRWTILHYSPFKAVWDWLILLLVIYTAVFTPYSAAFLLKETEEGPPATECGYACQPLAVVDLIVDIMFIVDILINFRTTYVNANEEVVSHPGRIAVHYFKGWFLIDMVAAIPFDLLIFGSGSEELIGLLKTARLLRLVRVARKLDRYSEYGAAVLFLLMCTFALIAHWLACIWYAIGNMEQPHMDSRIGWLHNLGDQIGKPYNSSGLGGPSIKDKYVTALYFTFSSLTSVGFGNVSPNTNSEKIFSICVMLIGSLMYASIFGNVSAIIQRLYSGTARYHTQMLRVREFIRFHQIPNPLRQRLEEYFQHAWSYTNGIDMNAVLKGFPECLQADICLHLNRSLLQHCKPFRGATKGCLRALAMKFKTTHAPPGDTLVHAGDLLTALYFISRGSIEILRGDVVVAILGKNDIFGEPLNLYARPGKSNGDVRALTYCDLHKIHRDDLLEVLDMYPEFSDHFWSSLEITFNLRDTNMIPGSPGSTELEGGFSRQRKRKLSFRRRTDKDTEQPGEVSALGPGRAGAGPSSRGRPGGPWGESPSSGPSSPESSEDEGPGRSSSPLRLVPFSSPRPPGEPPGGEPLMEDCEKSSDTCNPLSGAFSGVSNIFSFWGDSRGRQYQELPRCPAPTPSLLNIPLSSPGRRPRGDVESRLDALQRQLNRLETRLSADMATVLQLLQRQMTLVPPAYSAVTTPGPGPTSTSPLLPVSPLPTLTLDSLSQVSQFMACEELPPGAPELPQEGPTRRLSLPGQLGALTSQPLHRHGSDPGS
Readout Label: pIC50
Here pIC50 is given on a logarithmic scale as minus log10 of the concentration in mol/L.

// pIC50 lookup, molecule = `Cc1ccc(Nc2nc3ccc(N4CCN(C)CC4)cc3[nH]2)nc1` , result: 4.90

* * *

- Protocol Notes: in vivo
- Condition Summary: rat, po, 5 mg/kg
Readout Label: Cmax (nM)
Give just the number in nM; leave the unit off.

// Cmax lookup, compound = `CN1CCC(c2ccc3nc(Nc4ccc(C(F)(F)F)cn4)[nH]c3c2)CC1` , result: 500

* * *

- Protocol Notes: in vivo
- Condition Summary: mouse, 30 mg/kg
Each entry below lists one item and its recorded Cmax value.
Give just the number in µM; leave the unit off.

> print(dat)
                    structure.smiles.string  readout.label  unit.descriptor  reading
1  CN1CCN(c2ccc3nc(Nc4ccc(C(F)(F)F)cn4)[nH]c3c2)CC1           Cmax               µM      3.3

# evaluate next
// Cmax lookup, compound = `CN1CCC(c2ccc3nc(Nc4ccc(C(F)(F)F)cn4)[nH]c3c2)CC1` , result: 5.2

* * *

- Protocol Notes: in vivo
- Condition Summary: mouse, 30 mg/kg
- Description: Half life in Plasmodium berghei infected mouse at 30 mg/kg treated with four once daily doses
Readout Label: half-life (h)
Give just the number in h; leave the unit off.

> print(dat)
                    structure.smiles.string  reading
1  CN1CCC(c2ccc3nc(Nc4ccc(C(F)(F)F)cn4)[nH]c3c2)CC1      9.3

# evaluate next
// half-life lookup, compound = `CN1CCN(c2ccc3nc(Nc4ccc(C(F)(F)F)cn4)[nH]c3c2)CC1` , result: 3.7

* * *

- Protocol Notes: in vitro
- Condition Summary: human, THP-1 cells
- Description: Selectivity index, ratio of IC50 for human THP1 cells to IC50 for Plasmodium falciparum
Tag: rule met if measured selectivity ratio is not below 900, rule not met if it is.

For orientation, consider the following solved cases.
> print(dat)
                                   compound         class
1  Cc1nc(Nc2nc3cnc(N4CCN(C)CC4)cc3[nH]2)ccc1Cl  rule not met
2  Cc1nc(Nc2nc3ccc(C4CCN(C)CC4)cc3[nH]2)cc(C2CC2)c1F  rule not met
3  CN1CCN(c2cc3[nH]c(Nc4ccc(C(F)(F)F)cn4)nc3cn2)CC1      rule met
4  CN1C2CCC1CC(c1ccc3nc(Nc4ccc(C(F)(F)F)cn4)[nH]c3c1)C2 (stereo unspecified)  rule not met
5  Cc1nc(Nc2nc3ccc(N4CCN(C)CC4)cc3[nH]2)ccc1F      rule met
6  CN1CCN(c2ccc3nc(Nc4ccc(Br)cc4)[nH]c3c2)CC1      rule met

Query :: Confirm if selectivity ratio reported for the compound `OCCN1CCN(c2ccc3nc(Nc4ccc(C(F)(F)F)cn4)[nH]c3c2)CC1` is 900 or above.
Result :: rule met

* * *

- Protocol Notes: in vivo
- Condition Summary: rat, iv, 1 mg/kg
- Description: Half life in rat at 1 mg/kg, iv
Readout Label: half-life (h)
Give just the number in h; leave the unit off.

// half-life lookup, molecule = `CN1CCC(c2ccc3nc(Nc4ccc(C(F)(F)F)cn4)[nH]c3c2)CC1` , result: 14.9

* * *

- Protocol Notes: in vitro
- Condition Summary: human, microsomes
- Description: Clearance in human microsomes
Readout Label: microsomal CLint

> print(dat)
                    structure.smiles.string        reading
1  CN1CCN(Cc2ccc3nc(Nc4ccc(C(F)(F)F)cn4)[nH]c3c2)CC1  < 4 µL/min/mg
2  CN1CCN(c2cc(Cl)c3nc(Nc4ccc(Br)cn4)[nH]c3c2)CC1  < 4 µL/min/mg

// microsomal CLint lookup, molecule = `CN1CCC(c2ccc3nc(Nc4ccc(C(F)(F)F)cn4)[nH]c3c2)CC1` , result: < 4 µL/min/mg

* * *

- Protocol Notes: in vitro
- Condition Summary: human, THP-1 cells
Readout Label: selectivity ratio
API note: the answer field is a bare number with no unit suffix.

> print(dat)
                                   compound  reading
1  CN1CCN(C(=O)c2ccc3nc(Nc4ccc(Br)cn4)[nH]c3c2)CC1      548
2   Brc1ccc(Nc2nc3ccc(N4CCNCC4)cc3[nH]2)nc1      961
3  CN1CCN(c2ccc3nc(Nc4ccc(C(F)(F)F)cn4)[nH]c3c2)CC1      890

# evaluate next
// selectivity ratio lookup, compound = FC(F)(F)c1ccc(Nc2nc3ccc(N4CCN5CCCC5C4)cc3[nH]2)nc1 (centres undefined) , result: 357

* * *

- Protocol Notes: in vitro
- Condition Summary: human, THP-1 cells
Readout Label: selectivity ratio

> print(dat)
                    structure.smiles.string      readout.label  reading
1  CN1CCN(c2nc3[nH]c(Nc4ccc(Br)cn4)nc3cc2F)CC1  selectivity ratio    > 100
2   Brc1ccc(Nc2nc3ccc(N4CCOCC4)cc3[nH]2)nc1  selectivity ratio    > 100
3    CN1CCN(c2ccc3nc(Nc4ccccn4)[nH]c3c2)CC1  selectivity ratio     > 86

// selectivity ratio lookup, compound = `Cc1ccc(Nc2nc3ccc(N4CCN(C)CC4)cc3[nH]2)nc1` , result: > 385

// selectivity ratio lookup, compound = `CN1CCN(c2ccc3nc(Nc4ccc(C(F)(F)F)nc4)[nH]c3c2)CC1` , result: > 500

Origin of values: ChEMBL document CHEMBL3351865
